# Organism: Mus musculus
# Experimental Details: Effective dose against oxotremorine induced tremor
# Format: functional
Attribute Measured: ED50 (mg/kg)
Report the value in mg/kg with no unit label.

# ED50 (compound: CN(C)CCC=C1c2ccccc2CCc2ccccc21 ) is 21

# ED50 (compound: CN1CCC2C3c4ccccc4C(c4ccccc43)C2C1.Cl (centres undefined) ) is 100

# ED50 (compound: CN(C)CCCN1c2ccccc2CCc2ccccc21 ) is 70

###

# Species: Mus musculus
# Experimental Details: Effective dose against oxotremorine induced lacrimation
# Assay type: functional
Attribute Measured: ED50 (mg/kg)
Report the value in mg/kg with no unit label.

# ED50 (molecule: CN(C)CCC=C1c2ccccc2CCc2ccccc21 ) is 27

# ED50 (molecule: CN1CCC2C3c4ccccc4C(c4ccccc43)C2C1.Cl (centres undefined) ) is 36

# ED50 (molecule: CN(C)CCCN1c2ccccc2CCc2ccccc21 ) is 130
